target_or_system: DRB1*0405 (Homo sapiens, UniProt P01903+P01911, A100R/A169T/D86S/F76Y/I96L/K127E/L162R/M171V/N62H/P40V/Q125Y/R42H/S133A/S149N/S66Y/V115G/V209L/W38E)
measurement_notes: biochemical
measured_metric: log10 of IC50 (log10 of the value in nM)
Remember, log10 of IC50, in nM.

Consider the following illustrative entries.
>>> observed_measurement("CSCC[C@H](NC(=O)[C@@H](NC(=O)[C@H](Cc1ccccc1)NC(=O)[C@H](CCCNC(=N)N)NC(=O)[C@H](CC(N)=O)NC(=O)[C@H](CC(C)C)NC(=O)[C@H](CC(C)C)NC(=O)[C@H](CC(C)C)NC(=O)[C@H](CCCNC(=N)N)NC(=O)[C@H](CO)NC(=O)[C@@H](NC(=O)[C@@H](N)CCSC)C(C)C)[C@@H](C)O)C(=O)N[C@H](C(=O)N[C@@H](Cc1c[nH]cn1)C(=O)N[C@@H](CCCNC(=N)N)C(=O)N[C@@H](CCCNC(=N)N)C(=O)O)[C@@H](C)O")
2.84
>>> observed_measurement("CSCC[C@H](NC(=O)[C@H](CC(C)C)NC(=O)[C@H](CCCNC(=N)N)NC(=O)[C@H](Cc1c[nH]cn1)NC(=O)[C@H](CC(=O)O)NC(=O)[C@H](CS)NC(=O)[C@H](CC(C)C)NC(=O)[C@H](CCC(N)=O)NC(=O)[C@@H](NC(=O)[C@H](Cc1ccc(O)cc1)NC(=O)[C@@H](NC(=O)[C@@H](N)CCC(=O)O)C(C)C)[C@@H](C)O)C(=O)N[C@@H](CO)C(=O)N[C@@H](C)C(=O)N[C@@H](C)C(=O)O")
3.16
>>> observed_measurement("CC[C@H](C)[C@H](NC(=O)[C@H](CC(N)=O)NC(=O)CNC(=O)[C@@H](NC(=O)CNC(=O)[C@H](CC(N)=O)NC(=O)[C@@H](N)CO)[C@@H](C)O)C(=O)N[C@H](C(=O)N[C@@H](CO)C(=O)N[C@@H](CO)C(=O)N[C@H](C(=O)N[C@@H](CC(N)=O)C(=O)N[C@@H](CCSC)C(=O)N[C@H](C(=O)N[C@@H](CO)C(=O)N[C@@H](CCCNC(=N)N)C(=O)N[C@@H](CC(C)C)C(=O)O)C(C)C)C(C)C)C(C)C")
1.40

Go through the items and report each one's log10 of IC50.
1. CC[C@H](C)[C@H](NC(=O)[C@H](Cc1ccc(O)cc1)NC(=O)CNC(=O)[C@H](CC(C)C)NC(=O)[C@H](CCCCN)NC(=O)[C@H](Cc1c[nH]cn1)NC(=O)[C@H](CC(C)C)NC(=O)CNC(=O)[C@H](CCC(=O)O)NC(=O)CNC(=O)[C@H](CCC(=O)O)NC(=O)[C@@H](NC(=O)CNC(=O)[C@H](CO)NC(=O)[C@H](Cc1ccc(O)cc1)NC(=O)[C@H](CO)NC(=O)[C@@H](N)CC(N)=O)C(C)C)C(=O)O
2. CC[C@H](C)[C@H](NC(=O)[C@H](C)NC(=O)[C@H](CC(N)=O)NC(=O)[C@H](CO)NC(=O)[C@H](C)NC(=O)[C@H](CC(C)C)NC(=O)[C@H](CCCNC(=N)N)NC(=O)[C@H](CC(C)C)NC(=O)[C@H](CC(=O)O)NC(=O)[C@H](CCCNC(=N)N)NC(=O)[C@@H](N)CCCNC(=N)N)C(=O)N[C@@H](CS)C(=O)N[C@@H](CO)C(=O)N[C@@H](C)C(=O)N[C@H](C(=O)N1CCC[C@H]1C(=O)N[C@H](C(=O)O)C(C)C)C(C)C

// result
[3.38, 1.20]
